- System: SNU-475
- EXPERIMENTAL_DETAILS: Induction of apoptosis in human SNU475 cells assessed as PARP cleavage at cytotoxic IC100 measured after 24 hrs by Western blot method
- Type: functional, cell-based
The source made the active and inactive calls. The rule behind the calls is not given here.
VALUE_TYPE: Activity

>>> result("COc1ccc(OC)c(C(=O)/C=C/c2cn(-c3ccccc3)nc2-c2cccnc2)c1")
"Active"
>>> result("COc1ccc(OC)c(C(=O)/C=C/c2cn(-c3ccccc3)nc2-c2ccncc2)c1")
"Active"
>>> result("COc1cc(OC)c(C(=O)/C=C/c2cn(-c3ccccc3)nc2-c2ccncc2)c(OC)c1")
"Active"
>>> result("COc1cc(OC)c(C(=O)/C=C/c2cn(-c3ccccc3)nc2-c2cccnc2)c(OC)c1")
"Active"

* * *

- Species on record: Homo sapiens
- EXPERIMENTAL_DETAILS: Inhibition of tubulin polymerization (unknown origin)
The source made the active and inactive calls. No cut-off for these calls is given here.
VALUE_TYPE: inhibition

>>> result("O=C(/C=C/c1cn(-c2ccccc2)nc1-c1ccncc1)c1ccsc1")
"inactive"
>>> result("COc1ccc(C(=O)/C=C/c2cn(-c3ccccc3)nc2-c2ccsc2)c(OC)c1OC")
"inactive"
>>> result("O=C(/C=C/c1cn(-c2ccccc2)nc1-c1ccsc1)c1ccccc1")
"inactive"
